The values you see were collected from ChEMBL document CHEMBL3124806.

- Test system: SK-MEL-2
- Procedure Summary: Cytotoxicity against human SK-MEL-2 cells assessed as cell growth at 10 uM after 48 hrs by SRB assay relative to untreated control
- Format: functional
- Experimental Context: SK-MEL-2, 48 h, read-out: Activity

| Smiles Structure | Result Unit | growth at 10 µM |
| --- | --- | --- |
| O=C1c2c(nc3ccccn23)N=C(c2ccccc2)N2CCC[C@@H]12 | % | 114 |
| C[C@@H]1NC(c2ccc(N(C)C)cc2)=Nc2nc3ccccn3c2C1=O | % | 88.6 |
| Cc1ccccc1C1=Nc2nc3ccccn3c2C(=O)[C@H](Cc2ccccc2)N1 | % | 115 |
| Cc1ccc(C2=Nc3nc4ccccn4c3C(=O)[C@@H]3CCCN23)cc1 | % | 105 |
| COc1ccc(C2=Nc3nc4ccccn4c3C(=O)[C@H](Cc3ccccc3)N2)cc1 | % | 106 |
| Cc1ccc(C2=Nc3nc4ccccn4c3C(=O)[C@H](Cc3ccccc3)N2)cc1 | % | 105 |
| COc1ccc(C2=Nc3nc4ccccn4c3C(=O)[C@H](C)N2)cc1 | % | 83.4 |
| O=C1c2c(nc3ccccn23)NC(=O)N2CCC[C@@H]12 | % | 107 |
| C[C@@H]1NC(c2ccc(Br)cc2)=Nc2nc3ccccn3c2C1=O | % | 47.4 |
| Cc1ccc(C2=Nc3nc4ccccn4c3C(=O)[C@H](C)N2)cc1 | % | 69.5 |
| O=C1Nc2nc3ccccn3c2C(=O)[C@H](Cc2ccccc2)N1 | % | 113 |
| C[C@@H]1NC(c2ccccc2)=Nc2nc3ccccn3c2C1=O | % | 110 |
| C[C@H]1NC(c2ccc(Br)cc2)=Nc2nc3ccccn3c2C1=O | % | 81.8 |
